- study-system: T1, human melanocortin-4 receptor (hMC4-R) (human, UniProt P32245 1-332)
- T1 construct: whole, on cells; membranes prepared from hMC4-R cells were used; also called Melanocortin Receptor 4
- T1 sequence (P32245 whole entry): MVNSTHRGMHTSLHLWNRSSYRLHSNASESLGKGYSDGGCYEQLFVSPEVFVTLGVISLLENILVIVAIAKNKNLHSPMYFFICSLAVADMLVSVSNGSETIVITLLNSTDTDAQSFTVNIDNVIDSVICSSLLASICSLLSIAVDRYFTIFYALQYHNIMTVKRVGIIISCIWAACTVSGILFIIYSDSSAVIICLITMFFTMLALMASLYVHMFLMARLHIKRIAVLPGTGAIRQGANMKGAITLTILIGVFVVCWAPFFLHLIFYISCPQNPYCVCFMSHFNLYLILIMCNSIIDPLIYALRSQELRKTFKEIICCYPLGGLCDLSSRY
- test-description: 125I-NDP-α-MSH competition, hMC4-R membranes
Square brackets hold non-standard residues; d marks the D form. Ends that are not written are not given here. Nle = CCCC[C@H](N)C(=O)O
measured-quantity: % Inhibition at 1 µM (%)

- binder: "YVXGHFRWDRF (Nle 3 (X in letters); D-Phe 6; C-terminal amide, not complexed to Re) [[Nle3, D-Phe6]-γ-MSH parent polypeptide Tyr-Val-Nle-Gly-His-D-Phe-Arg-Trp-Asp-Arg-Phe-NH2]"
  % Inhibition at 1 µM [%]: 99
- binder: "YV[Nle]CGH[dF]RWDRF-NH2 (also: Re(V)=O N3S1 chelate via V2 N, Nle3 N, Cys4 N and S (ReOCl3(PPh3)2)) [metallopeptide 3-10]"
  % Inhibition at 1 µM [%]: 80
- binder: "YV[Nle]GH[dF]CRWDRF-NH2 (not fully specified (bridges); printed as Tyr-Val-Nle-Gly-His-D-Phe-Cys-Arg-Trp-Asp-Arg-Phe-NH2; also: bridge at 7 via Re(V)=O, other end not in the chain) [metallopeptide 3-6]"
  % Inhibition at 1 µM [%]: 31
